assay-system: T1, rhNav1.7α + β1-β2-β3 (rhesus monkey)
T1 construct: also called rhNav1.7-beta1-beta2-beta3; rhNav1.7-β1-β2-β3
assay-summary: FACS, CHO Flp-In, competitor 1 µM IRR00092
Below, each entry is listed alongside its reported MFI.
Hi! Could you send only the number? It should be in MFI, unit omitted.

F0103PMP500E03 (bispecific antibody, crude periplasmic extract; also called F103275B05(N93R)-50GS-F0103500E03 bivalent ISVD) EVQLVESGGGLVQPGGSLRLSCAASGSIFNINSMAWYRRAPGKQRELVASSTNGGSTNYADSVKGRFTISRDNAKRVYLQMNSLTPEDTAVYYCRALLQPSIYDISRTYWGQGTLVTVSSGGGGSGGGGSGGGGSGGGGSGGGGSGGGGSGGGGSGGGGSGGGGSGGGGSEVQLVESGGGLVQAGGSLRLSCAASGRTFSRYQMGWFRQAPGKEREFVAYISWSGSTRYVDSVKGRFTISRDNAKNTVYLQMNSLKPEDTAVYHCAAGTAGIISSRPETYDSWGQGTQVTVSSAAADYKDHDGDYKDHDIDYKDDDDKGAAHHHHHHKAA: 96900

input: State the recorded MFI for this entry: F0103PMP505D08 (bispecific antibody, crude periplasmic extract; also called F103275B05(N93R)-50GS-F0103505D08 bivalent ISVD) EVQLVESGGGLVQPGGSLRLSCAASGSIFNINSMAWYRRAPGKQRELVASSTNGGSTNYADSVKGRFTISRDNAKRVYLQMNSLTPEDTAVYYCRALLQPSIYDISRTYWGQGTLVTVSSGGGGSGGGGSGGGGSGGGGSGGGGSGGGGSGGGGSGGGGSGGGGSGGGGSEVQLVESGGGLVQAGGSLRLSCVTSGRTSDLSTMNWFRQAPGKEREFVARITRRGSTYYAESVKERFIISRDNAKNTVYLQMNSLKPEDTANYYCTAASEMGYHYRGQGTQVTVSSAAADYKDHDGDYKDHDIDYKDDDDKGAAHHHHHHKAAGGGGG
output: 108000
